Reported IC50 values follow for various molecules
# tested-system: Enoyl-[acyl-carrier-protein] reductase [NADH] FabI (Escherichia coli (strain K12))
# Sequence (P0AEK4 whole entry): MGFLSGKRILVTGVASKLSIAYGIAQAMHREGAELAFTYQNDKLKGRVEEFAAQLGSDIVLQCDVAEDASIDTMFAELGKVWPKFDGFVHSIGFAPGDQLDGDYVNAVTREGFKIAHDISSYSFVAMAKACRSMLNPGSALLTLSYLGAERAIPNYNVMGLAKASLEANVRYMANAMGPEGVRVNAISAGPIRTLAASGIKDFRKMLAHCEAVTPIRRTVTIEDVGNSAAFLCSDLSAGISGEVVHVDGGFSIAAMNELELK
# assay-procedure: Enzyme Inhibition Assay
# condition-description: pH 6.5; 30 °C

Cc1cccc2c(CN(C)C(=O)/C=C/c3cnc4c(c3)CCC(=O)N4)c(C)n(C)c12 :: < 70 nM

Lab note: next molecule to report on.
Look up IC50 for this molecule: `Cc1[nH]c2ccccc2c1CN(C)C(=O)/C=C/c1cnc2c(c1)CCC(=O)N2` < 60 nM

----------
Reported IC50 values follow for various compounds
# tested-system: UniProt Q9FBC5
# Sequence (Q9FBC5 whole entry): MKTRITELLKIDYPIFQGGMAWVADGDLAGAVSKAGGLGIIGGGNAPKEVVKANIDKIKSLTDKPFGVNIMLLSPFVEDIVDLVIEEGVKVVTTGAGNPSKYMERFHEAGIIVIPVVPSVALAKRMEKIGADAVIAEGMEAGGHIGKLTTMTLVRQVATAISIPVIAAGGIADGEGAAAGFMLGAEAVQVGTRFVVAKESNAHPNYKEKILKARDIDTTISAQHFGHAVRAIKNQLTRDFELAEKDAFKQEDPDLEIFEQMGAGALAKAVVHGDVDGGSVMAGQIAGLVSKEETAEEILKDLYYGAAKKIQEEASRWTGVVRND

Oc1cc(Cl)ccc1Oc1ccc(Cl)cc1Cl :: > 30 µM

Lab note: next compound to report on.
Return IC50 measured with UniProt Q9FBC5 given this compound: `Cc1c(CN(C)C(=O)/C=C/c2cnc3c(c2)CCC(=O)N3)c2ccccc2n1C` > 30 µM
